cytotoxicity at 70.5 h by entry:
assay.procedure: Human HepG2 cell viability assay in 384 well format
Format: toxicity, cell-based
Set-up: dose 125 nL, time 70.5 hour; concentration not given beside the values
condition: HepG2 cells, read-out: Inhibition
measured.metric: cytotoxicity at 70.5 h (%)

1. CN(C)c1ncnc2c1CCN(CC1CCOC1)CC2 (stereo unspecified) ... -14.4
2. CNC(=O)[C@H]1C[C@@H]2CN(C(=O)NCCc3ccccc3)C[C@H]1O2 ... -12
3. COCCCN1CCN([C@@H]2c3ccccc3C3(CCNCC3)[C@H]2O)CC1 ... 0.267
4. CN(Cc1cccs1)Cc1nnsc1Cl ... -4.68
5. CC(C)CN1CC(C(=O)NCCOc2ccc3c(c2)OCO3)CC1=O (stereo unspecified) ... 3.51
6. CC(C)c1noc(C2CCCN2C(=O)CN2CCc3ccccc32)n1 (stereo unspecified) ... 23.7
7. CC(C)(C)c1nc(CN(Cc2ccccc2F)C2CCCCC2)no1 ... -8.5
8. Cc1nn(-c2ccc(C(=O)O)cc2)c2c1C(CC(C)C)SCC(=O)N2 (stereo unspecified) ... 0.483
9. CN(C)c1ccc(C(=O)NCCCc2ccccn2)cn1 ... -1.92
10. CCN(CC)CCNC(=O)C(C)OCC(F)(F)F (stereo unspecified) ... -3.49
11. CCS(=O)(=O)c1ncc(CN2CCN(C)CC2)n1CCc1ccccc1 ... -3.88
